- Tested On: T1, 4H2283-AA
- T1 chain: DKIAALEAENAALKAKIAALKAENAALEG
- Protocol Text: two-hybrid library CCmax;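 also: natural log of median RNA to DNA barcode read ratio; higher means stronger binding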
- Experimental Parameters: mean of both orientations
Reported Endpoint: interaction score

The following binders have reported results that may help.
{"Binder": "DEIAALEAENAALEAKNAALKAKIAALEG [4H189-AA]", "interaction score": -1.71}
{"Binder": "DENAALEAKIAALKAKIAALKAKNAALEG [4H1391-AA]", "interaction score": -1.61}
{"Binder": "DKIAALEAENAALKAEIAALEAKNAALKG [4H2248-AA]", "interaction score": 2.34}

[I] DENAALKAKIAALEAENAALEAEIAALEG [4H1809-AA]
[II] DENAALEAEIAALKAKNAALKAEIAALKG [4H1146-AA]
[III] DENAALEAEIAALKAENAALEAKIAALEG [4H1109-AA]
[IV] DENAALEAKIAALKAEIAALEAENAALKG [4H1348-AA]
Inquiry: Hello, I need these entries ordered by interaction score, highest reading first. Thanks! Output the labels ranked as instructed.
Reply text: I, II, III, IV

[a] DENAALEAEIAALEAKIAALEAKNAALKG [4H1064-AA]
[b] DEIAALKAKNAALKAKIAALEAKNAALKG [4H1000-AA]
[c] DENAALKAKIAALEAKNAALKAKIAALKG [4H1854-AA]
[d] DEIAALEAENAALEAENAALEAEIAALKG [4H146-AA]
Inquiry: Reorder: interaction score, max to min. # format: label list in the order the request specifies
Reply text: b, c, d, a
